Data origin: patent US8217035B2

Tested on: A2780 ovarian cancer cells
Test: Cellular proliferation in A2780 cells, Cell Titer Glo (Biological Method 4)
Type: cell-based
Details: Homo sapiens; ovarian cancer cell line A2780, Biological Method 4
Entries and their EC50 values follow.

1. Nc1ccc(-c2cc(Sc3ccccn3)nc(N3CCOCC3)n2)cn1; < 10 µM
2. CS(=O)(=O)Nc1cccc(-c2cc(-c3ccc(N)nc3)nc(N3CCOCC3)n2)c1; < 10 µM
3. Nc1ccc(-c2cc(Nc3ccc4c(c3)OCCO4)nc(N3CCOCC3)n2)cn1; < 10 µM
4. Nc1cc(C(F)(F)F)c(-c2cc(N3CCOc4ccccc43)nc(N3CCOCC3)n2)cn1; < 10 µM
5. C[C@@H]1CN(c2cc(-c3cnc(N)cc3C(F)(F)F)nc(N3CCOCC3)n2)C[C@H](C)O1; < 10 µM
6. Nc1ccc(-c2cc(-n3ncc4cccc(N)c43)nc(N3CCOCC3)n2)cn1; < 10 µM
7. Nc1ncc(-c2cc(N3CCNC(=O)C3)nc(N3CCOCC3)n2)cn1; < 10 µM
8. Nc1cc(Cl)c(-c2cc(OC3CCOCC3)nc(N3CCOCC3)n2)cn1; < 25 µM

## Task Item under review: Nc1cc(C(F)(F)F)c(-c2cc(-c3cncc(CN4CCCCC4)c3)nc(N3CCOCC3)n2)cn1 . Reported EC50?
## Result < 10 µM

## Task Param item: NC(=O)c1ccnc(Nc2cc(-c3ccc(N)nc3)nc(N3CCOCC3)n2)c1
## Result < 25 µM

## Task Param item: Nc1ncc(-c2cc(C(=O)N3CCNCC3)nc(N3CCOCC3)n2)cn1
## Result < 10 µM

## Task Param item: CC(=O)c1cccc(-c2cc(-c3ccc(N)nc3)nc(N3CCOCC3)n2)c1
## Result < 10 µM

## Task Param item: CN1CCN(c2ccc(Nc3cc(-c4ccc(N)nc4)nc(N4CCOCC4)n3)cn2)CC1
## Result < 10 µM
